Where do these numbers come from? They come from the nanobody polyreactivity screen of Harvey et al. (2022).

# experimental-details: yeast display, Sf9 membrane polyspecificity reagent, FACS + sequencing; frameworks hold sequencing errors
value-type: polyreactivity (PSR sort gate)

• QVQLVESGGGLVQAGGSLRLSCAASGSNFSGNAMGWYRQAPGKERELVAAISRRGGRTYYADSVKGRFTISRDNAKNTVYLQMNSLIPEDTAVYYCNADSVRYDYSAYDYEYWGQGTQVNVSS = high polyreactivity
• QVQLVESGGGLVQAGGSLRLSCAASGFIFNYNAMGWYRQAPGKERELVAAIRTSSGSTYYADSVKGRFTISRDNAKNTVYLQMNSLKPEDTAVYYCGKTRYSTYSPIYYYWGQGTQVTVSS = high polyreactivity

----------
# experimental-details: yeast display, Sf9 membrane polyspecificity reagent, FACS + sequencing; frameworks hold sequencing errors
value-type: polyreactivity (PSR sort gate)

- QVHLVESGGGIVQAGGSLRLSCAASGRTFWNYAMRWYRQAPGKERELVAVIRFSDGSTYYADSVKGRFTISRDNAKNTVYVQMNSLKPEDTAVYYCAAKGQRRWGSGFDYWGQGTQVTVSS: low polyreactivity
- QVQLVESGGGLVQAGGSLRLSCAASGRIFGYYAMGWYRQAPGKERELVAAITINGGRTYYADSVKGRFTISRDNAKNTVYLQMNSLKPEDTAVYYCTATSRYNRLGYWGQGTLVTVSS: high polyreactivity
- QVQLVESGGGIVQAGGSLRLSCAASGFTFSRYTMGWFRPAPGQERELVAAINRRGGSTYYADSVKGRFTISRDNAKHTVYLQLNSVKPADTAVYYCAATYTVRSGNGIANDYWGQGTQVTVSS: high polyreactivity
- QEQLQESGGGLVQEGGSLRLSCAASGNISPPADMGWYRQAPGKERELVASIGTGGTTNYADSVKGRFTISRDNAINTVYLQMNSLKPDDTAVYYCAAVRYEYNPYDYWGQGTQVTVSS: low polyreactivity
- QVQLVESGGGLVQAGGSLRLSCAASGYIFDYYDMGWYRQAPGKERELVAAINGSGGDTYYADSVKGRFTISRDNANNTVYLEMNSLKPEDTAVYYCAADLVYYSGWGYAFNYWGQGTQVNVSS: high polyreactivity

----------
# experimental-details: yeast display, Sf9 membrane polyspecificity reagent, FACS + sequencing; frameworks hold sequencing errors
value-type: polyreactivity (PSR sort gate)

* QVQLVESGGGLVQAGGSLRLSCAASGFIFRGYAMGWYRQAPGKERELVAAITSSGGDTYYADSVKGRFTISRDNAKNTVYLQMNSLKPEDTAVYYCNARVYASGTEGDYWGQGTQVTVSS | low polyreactivity
* QVQLVESGGGLVQAGGSLRLSCAASGGTFDYNAMGWYRQAPGKERELVAAITSGASTYYADSVKGRFTISRDNAKNTVYLQMNSLKPEDTAVYYCAKGPTPGYDYWGQGTQVTVSS | low polyreactivity

----------
# experimental-details: yeast display, Sf9 membrane polyspecificity reagent, FACS + sequencing; frameworks hold sequencing errors
value-type: polyreactivity (PSR sort gate)

- QVQLVESGGGLVQAGGRLRLSCAASGSIFGANTMVWYRQAPGKERELVAAISSGGNTYYADSVKGRFTISRDNAKNTVYLQMNSLKPEDTAVYYCNAQTRYRYQYGYLGGTGYNYWGQGTQVTVSS: low polyreactivity
- QVQLVESGGGLVQAGGSLRLSCAASGSTFYPYTMGWYRQAPGKERELFAAITSGGNTNYADSVKGRFTISRDNAKNTVYLQMNSLKPEDTAVYYCNAEPEGTTGNYFPYDYWGQGTQVTVSS: low polyreactivity

----------
# experimental-details: yeast display, Sf9 membrane polyspecificity reagent, FACS + sequencing; frameworks hold sequencing errors
value-type: polyreactivity (PSR sort gate)

- QVQLVESGGGLVQAGGSLRLSCAASGFTFDKYAMGWYRQAPGKERELVAAISNSGGRTYYADSVKGRFTISRDNAKNTVYLQMNSLKPEDTAVYYCTIFKDYDYWGQGTQVTVSS: high polyreactivity
- QVQLVESGGGLVQAGGSLRLSCAASGSIFDVNAMGWYRQAPGKERELVASIDNSGTTNYADSVKGRFTISRDNAKNTVYLHMNSLKPEDTAVYYCAKDASLEYSRWGGDYWGQGTQVTVSS: low polyreactivity
- QVQLVESGGGLVQAGGRLPISCAASGLTFTSNAMGGYIQAPGKERELVASITWYGGSTSYADSVKGRFTISRDYAKNTVDFQMNSLKPEDTAVSYCAADAWRSYGYRAYYYWGQGTQVTVSS: high polyreactivity
- QVQLVESGGGLVQAGGSLRLSCAASGRTFVFYAMGWYRPAPGKERELVADITWSDGNTYYADSVKGRFTISRDNAKNSVYLQMKSLKPEDTAVYYCAKVRTGQSRSVGYDYWGQGTQVTGSS: low polyreactivity
- QVQLVESGGGLVQAGGSLRLSCAASGFTFPLNAMGWYRQAPGKERELVAAISGSGGSTYYADSVKGRFTISRDNAKNTVYLQMNSLKPEDTAVYYCAAGIYYWGQGTQVTVSS: low polyreactivity

----------
# experimental-details: yeast display, Sf9 membrane polyspecificity reagent, FACS + sequencing; frameworks hold sequencing errors
value-type: polyreactivity (PSR sort gate)

• QVQLVESGGGLVQAGGSLRLSCAASGSISYDYAMGWYRQAPGKERELVASITSRGGSTYADSVKGRFTISRDNAKNTVYLQMNSLKPEDTAVYYCAADAIPNLIFISLPFGLDYWGQGTQVTVSS = low polyreactivity
• QVQLVESGGGLVQAGGSLRLSCAYSGRTICSNAMGWYRQAPGKESELVARIDSTYYADSVKGRFTISRDNAKNTVYLQMNSLKPEDTAVYYCAADAWDHWTWFYPTNGMDYWGQGTQVNVSS = low polyreactivity
• QVQLVESGGGLVQAGGSLRLSCAASGFTLIDYAMGWYRQAPGKERELVAAISGSGGRTYYADSVKGRFTISRDNAKNTVYLQMNSLKPEDTAVYYCAAGRRHVYKRRRYDYWGQGTQVTVSS = high polyreactivity
• QVQLVESGGGLVQAGGSIRLSCAASGSIFRIYVMGWYRQAPGQERELVAAINSGGRTKYADSVKARFTISRDNAKNTVYLQMNSLKPEDTAVYYCAAAFQYRKGVSSLYASWGQGTQVTLSS = high polyreactivity
• QVQLGESGGGLVQAGGSLRLSCAASGFIFYVYAMGWYRQAPGKERELVAAISWSGDRTYYADSVKGRFTISRDNAKNTVYLQINSLKPEDTAVYYCAVERSVYSYYYWGQGTQVTVSS = high polyreactivity
• QVQLVESGGGLVQAGGSLRLSCAASGSIFSLYAMGWYRQAPGKERELVAAISQSGDSTFYADSVKGRFTISRDHAKNTVYLQMNSLKPEYTAVSYCAADPRNKAWKWDDYWGQGTQVTVSS = low polyreactivity
• QVQLVESGGGLVQAGGSLRLSCAASGRIFSNNAMGWYRQAPGKERELVAAIDSSGDSTNYADSVKGRFTISRDNAKNTVYLQMNSLKPEDTAVYYCNARQSGRRVWQYLYGYWGQGTQVTVSS = high polyreactivity
• QVQLVESGGGLVQAGGSLRLSCAASGNTFRSYVMGWYRQAPGKERELVADISSGDGTNYADSVKGRFTISRDNAKNTVYLQMNSLKPEDTAVYYCAAEWSEESDYWGQGTQVTVSS = low polyreactivity
• QVQLVESGGGLVQAGGSLRLSCAASGLINYYYAMGWYRQAPGKERELVAAISGSSGASTYYADSVKGRFTISRDNAKNTVYLQMNSLKPEDTAVYYCATPVASVTGYDYWGQGTQVTVSS = low polyreactivity
• QVQLVESGGGLVPAGGSLRLSCAASGRTVRRNAMGWYRHAPGKERELVADISNGDSTKYADSVKGRFTISRDNAKNTVYLQMNSVNPEDTAVYYCATEVSWHWYQQSVTRMDYWGQGTQVTVSS = low polyreactivity
• QVQLVESGGGLVQAGGSLRLSCAASGSSFRYTMGWYRQAHGKQRELVATITYSDGSTYYADSVKGRFTISRDNAKNTVYFQMNSLKPEDTAVYYCARTTPTGRQYRRYDYWGQGSQVTVSS = low polyreactivity

----------
# experimental-details: yeast display, Sf9 membrane polyspecificity reagent, FACS + sequencing; frameworks hold sequencing errors
value-type: polyreactivity (PSR sort gate)

• QVQLVESGGGLVQAGGSLRLSCAASGSIFRWNAMGWYRQAPGKERELVAAITWRSSSTYYADSVKGRFTISRDNAKNTVYLQMNSLKPEDTAVYYCNAKRGVQTYANFYGSKYDYWGQGTQVTVSS = high polyreactivity
• QVQIVESGGGLVQAGGSIRLSCAASGTTFNLYAMGWYRQAPGKERQLVAVISWSGGSTYYADSVKGRFTISRDNAKNTVYLQMNSLKPEDTAVYYCAAEYYQWLYPYNEYDYWGQGTQVTVSS = high polyreactivity
• QVQLEDSGGGLVQAGGRLRLSCAASGYIFSDYAMGWYRQAPGKERELVADIRARGGSTYYADSVKGRFTISRDKAQNTVYLQMNSLKPEDTAVYYCNVEDPFYSGVVEFDYWGQGTQVTVSS = low polyreactivity
• QVQLVESGVGLVQAGGILRLSCAASGFIFCQYSMGWYRQAPWKERELVAAISSVGTTNYADSVKGSFTISRDNAKNTVYLQMNSLKPEDTAVYYCNADSLVEYWDYDYWGQGTQVTVSS = low polyreactivity
• QVQLVESGGGLVQAGGSLRLTCAASGFTFDQYAMGWYRQEPGKERELVAAISFDGSSTYYADSVKGRFTISRDNAKNTVYLQMNSLKPEDTAVYYCNAAVRGYSSLYRYGYWGQGTQVTVSS = high polyreactivity
• QVQLVESGGGLVQAGGSLRLSCAASGRNFSYYAMGWYRQAPGKERELVAFISSGGNTYYADSVKGRFTISRDNAKNTVYLPMNSLKPEDTAVYYSGADPNAQGYPQVNYWGQGTQVTVSS = high polyreactivity
• QVQLVESGGGLVQAGGSLRLSCAASGINFGRYAMGWYRQAPGKERELVATITVNGGRTYYADSVKGRFTISRDNAKNTVYLQMNSLKPEDTAVYYCNAEVPGHYFDGWYFYDFDYWGQGTQVTVSS = low polyreactivity
• QVQLVESGGGLVQAGGSLRLSCAASGFTFHYYAMGRYRQAPGKERELVAAISWDTGSTYYADSVKGRFTISRDNAKNTVYLQMNSLKPEDTAVYYCNAQFYWYHGEWVFYGLSDDFDYWGQGTQVTVSS = high polyreactivity
• QVQLVESGGGLVQAGGSLRLSCAASGFTFYYYAMGWYRQAPGKERELVARITSGGSTYYADSVKGRFTISRDNAKNTVYLQMISLKPEDTAVYYCNVDVSVEVAYWGQGTQVTVSS = low polyreactivity
• QVQLVESGGGLVQAGGSLRLSCAASGRTFFVNTMGWSRQAPGKERELVAAISDSGGSTYADSVKGRFTISRDNAKNTVNLQKNSLKPEDTAVYYCAARRRYPQRFGFDYWGQGTQVTVSS = low polyreactivity
• QVQLVESGGGLVQAGGSLRLSCAASGGTFYYYAMGWYRQAPGKERELVAAISWSGVSTSYADSVKGRFTISRDNAKNTVFLQMNSMKPEDTAVYYCAAGPFYYTGGHWGQGTQVTVSS = high polyreactivity
